- PROTOCOL CONDITIONS: in water, 308.15 K

[
  {
    "MOLECULE": "COc1ccc2nc(S(=O)Cc3ncc(C)c(OC)c3C)[nH]c2c1 (stereo unspecified)",
    "solubility (mole fraction)": 0.000138
  }
]

---

- PROTOCOL CONDITIONS: in methanol, 283.15 K

[
  {
    "MOLECULE": "COc1ccc2nc(S(=O)Cc3ncc(C)c(OC)c3C)[nH]c2c1 (stereo unspecified)",
    "solubility (mole fraction)": 0.00264
  }
]

---

- PROTOCOL CONDITIONS: in THF, 318.15 K
METRIC: solubility (mole fraction)

[
  {
    "COMPOUND": "COc1ccc2nc(S(=O)Cc3ncc(C)c(OC)c3C)[nH]c2c1 (stereo unspecified)",
    "METRIC": "solubility (mole fraction)",
    "OBS VALUE": 0.0425
  }
]
